Listed next: entries and their corresponding composite z-score.
target: Neurogenic locus notch homolog protein 2 (Homo sapiens) (UniProt Q04721)
Sequence (Q04721 whole entry, looked up): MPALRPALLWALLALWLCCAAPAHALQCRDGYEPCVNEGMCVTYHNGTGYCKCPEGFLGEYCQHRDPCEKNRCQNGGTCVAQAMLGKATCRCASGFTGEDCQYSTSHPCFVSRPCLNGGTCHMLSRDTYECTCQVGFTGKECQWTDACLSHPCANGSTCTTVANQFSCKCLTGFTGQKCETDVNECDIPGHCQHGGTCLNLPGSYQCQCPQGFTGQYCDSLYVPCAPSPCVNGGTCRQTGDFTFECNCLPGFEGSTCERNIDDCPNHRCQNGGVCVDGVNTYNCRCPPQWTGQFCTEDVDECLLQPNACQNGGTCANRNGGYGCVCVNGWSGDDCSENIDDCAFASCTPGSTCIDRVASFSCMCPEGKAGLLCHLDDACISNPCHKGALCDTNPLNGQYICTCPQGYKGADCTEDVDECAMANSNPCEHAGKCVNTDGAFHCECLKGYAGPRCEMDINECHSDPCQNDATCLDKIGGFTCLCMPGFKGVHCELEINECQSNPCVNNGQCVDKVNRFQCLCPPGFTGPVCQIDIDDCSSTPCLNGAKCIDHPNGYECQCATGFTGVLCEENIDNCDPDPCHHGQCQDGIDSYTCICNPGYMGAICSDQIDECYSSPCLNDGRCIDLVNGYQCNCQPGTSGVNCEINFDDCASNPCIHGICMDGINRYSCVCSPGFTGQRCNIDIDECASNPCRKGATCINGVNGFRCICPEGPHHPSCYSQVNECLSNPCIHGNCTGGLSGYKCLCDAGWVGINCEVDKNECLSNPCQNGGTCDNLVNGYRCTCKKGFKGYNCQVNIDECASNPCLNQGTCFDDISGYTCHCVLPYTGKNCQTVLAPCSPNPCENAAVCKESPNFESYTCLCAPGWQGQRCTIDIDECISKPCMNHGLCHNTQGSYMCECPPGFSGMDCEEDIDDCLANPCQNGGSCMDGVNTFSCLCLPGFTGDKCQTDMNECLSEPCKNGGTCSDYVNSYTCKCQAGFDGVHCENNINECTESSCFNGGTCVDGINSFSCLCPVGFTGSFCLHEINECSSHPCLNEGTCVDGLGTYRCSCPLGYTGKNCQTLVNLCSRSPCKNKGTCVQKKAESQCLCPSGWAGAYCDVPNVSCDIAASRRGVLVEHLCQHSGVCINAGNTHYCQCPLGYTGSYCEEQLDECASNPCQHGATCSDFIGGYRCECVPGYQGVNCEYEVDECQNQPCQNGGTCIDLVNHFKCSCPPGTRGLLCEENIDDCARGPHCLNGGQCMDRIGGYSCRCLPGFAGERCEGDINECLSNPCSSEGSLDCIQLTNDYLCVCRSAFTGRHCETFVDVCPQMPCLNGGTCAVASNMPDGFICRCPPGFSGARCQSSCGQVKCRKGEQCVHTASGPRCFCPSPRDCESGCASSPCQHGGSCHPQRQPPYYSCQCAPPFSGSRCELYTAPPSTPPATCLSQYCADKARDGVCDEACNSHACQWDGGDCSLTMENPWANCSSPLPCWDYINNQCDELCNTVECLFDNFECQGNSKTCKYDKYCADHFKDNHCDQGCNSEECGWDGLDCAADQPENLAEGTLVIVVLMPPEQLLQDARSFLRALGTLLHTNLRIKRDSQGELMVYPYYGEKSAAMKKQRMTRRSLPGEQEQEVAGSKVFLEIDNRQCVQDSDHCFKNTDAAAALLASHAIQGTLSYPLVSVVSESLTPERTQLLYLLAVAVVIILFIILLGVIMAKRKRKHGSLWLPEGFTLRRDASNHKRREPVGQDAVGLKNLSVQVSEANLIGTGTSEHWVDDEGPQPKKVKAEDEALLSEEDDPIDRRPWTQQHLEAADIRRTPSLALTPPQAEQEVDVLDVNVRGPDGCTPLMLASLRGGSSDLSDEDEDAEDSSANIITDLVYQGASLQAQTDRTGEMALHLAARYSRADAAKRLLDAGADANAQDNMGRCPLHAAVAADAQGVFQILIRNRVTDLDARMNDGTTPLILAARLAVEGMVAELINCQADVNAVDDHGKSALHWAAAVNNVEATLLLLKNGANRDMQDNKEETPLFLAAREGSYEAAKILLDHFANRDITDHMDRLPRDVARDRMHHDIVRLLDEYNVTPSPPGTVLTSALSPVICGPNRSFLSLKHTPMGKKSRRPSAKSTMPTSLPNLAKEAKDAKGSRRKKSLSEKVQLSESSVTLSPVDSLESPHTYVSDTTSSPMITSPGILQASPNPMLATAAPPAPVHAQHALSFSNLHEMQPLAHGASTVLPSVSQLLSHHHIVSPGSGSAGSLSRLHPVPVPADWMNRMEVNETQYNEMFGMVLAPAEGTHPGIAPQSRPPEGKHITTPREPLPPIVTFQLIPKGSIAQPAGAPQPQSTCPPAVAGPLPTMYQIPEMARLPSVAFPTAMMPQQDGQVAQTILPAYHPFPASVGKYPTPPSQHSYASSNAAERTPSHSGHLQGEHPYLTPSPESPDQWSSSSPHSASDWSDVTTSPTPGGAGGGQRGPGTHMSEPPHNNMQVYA
measurement_notes: Notch2 binders on small-molecule microarrays, primary screen, biochemical, small-molecule microarray, 635 nm fluorescence, stem cell growth factors (AID 1073)
condition_notes: Notch2 binding, higher = more signal
assay_endpoint: composite z-score

| compound | target | assay_endpoint | assay_value |
| --- | --- | --- | --- |
| CC=CC(O)C1C=CC2C(=O)N(c3ccccc3)C(=O)C2N1Nc1ccc([N+](=O)[O-])cc1 (centres undefined) | Neurogenic locus notch homolog protein 2 (Homo sapiens) (UniProt Q04721) | composite z-score | 0.998 |
| COc1cc(CO)cc(I)c1O[C@H]1C=C(C(=O)NCCO)C[C@@H](N(Cc2ccc(F)cc2)C(=O)C2CCCO2)[C@@H]1O (some centres undefined) | Neurogenic locus notch homolog protein 2 (Homo sapiens) (UniProt Q04721) | composite z-score | 0.159 |
| COc1ccc([Si](C)(C)[C@H]2[C@H](CCn3cc([C@H](O)c4ccccc4)nn3)O[C@@]3(C(=O)N(Cc4ccc(N5CCC5=O)cc4)c4ccccc43)[C@@H]2C)cc1 | Neurogenic locus notch homolog protein 2 (Homo sapiens) (UniProt Q04721) | composite z-score | 0.176 |
| COCCOC(=O)N1C(=O)[C@@]2(c3cc(C#CC4(O)CCCCCC4)ccc31)[C@H](C(=O)N1CCCCCCC1)[C@H]1C(=O)O[C@H](c3ccccc3)[C@H](c3ccccc3)N1[C@@H]2c1ccc(OCCO)cc1 | Neurogenic locus notch homolog protein 2 (Homo sapiens) (UniProt Q04721) | composite z-score | 1.26 |
| [N-]=[N+]=Nc1ccccc1C[C@]1(C(=O)NCc2ccccc2)N=C(c2ccc(OCCCO)cc2)O[C@H]1c1ccccc1 | Neurogenic locus notch homolog protein 2 (Homo sapiens) (UniProt Q04721) | composite z-score | 1.61 |
| COCCOC(=O)N1C(=O)[C@@]2(c3cc(C#CC4=CCCCC4)ccc31)[C@H](c1ccc(O)cc1)N1[C@H](c3ccccc3)[C@H](c3ccccc3)OC(=O)[C@H]1[C@@H]2C(=O)Nc1nc2ccccc2s1 | Neurogenic locus notch homolog protein 2 (Homo sapiens) (UniProt Q04721) | composite z-score | 1.24 |
| CN1C(=O)C2C(C1=O)C1C=C(c3ccc(CO)cc3)C2C(c2cccs2)N1Cc1cccc(OC(F)(F)F)c1 (centres undefined) | Neurogenic locus notch homolog protein 2 (Homo sapiens) (UniProt Q04721) | composite z-score | 1.25 |
| Cc1ccc(S[C@]2(C(=O)NC3CC3)CC(=O)N(Cc3ccccc3Cl)[C@@H]2c2ccc(CO)cc2I)cc1 | Neurogenic locus notch homolog protein 2 (Homo sapiens) (UniProt Q04721) | composite z-score | 0.0538 |
| O=C1C2C=CC(C(O)c3cc(C(F)(F)F)cc(C(F)(F)F)c3)N(Nc3ccc([N+](=O)[O-])cc3)C2C(=O)N1c1ccccc1 (centres undefined) | Neurogenic locus notch homolog protein 2 (Homo sapiens) (UniProt Q04721) | composite z-score | 1.67 |
| [N-]=[N+]=NCc1ccccc1C[C@@]1(C(=O)N2CCCCC2)N=C(c2ccc(OCCCO)cc2)O[C@@H]1c1ccccc1N=[N+]=[N-] | Neurogenic locus notch homolog protein 2 (Homo sapiens) (UniProt Q04721) | composite z-score | 1.49 |
| COC(=O)C1(Cc2ccccc2)C=C2C(=C(C(C)C)C(=O)C2C)CN1 (centres undefined) | Neurogenic locus notch homolog protein 2 (Homo sapiens) (UniProt Q04721) | composite z-score | -0.0793 |
| CCOc1cc(C(O)C2C=CC3C(=O)N(C)C(=O)C3N2N2CCCCC2)ccc1O (centres undefined) | Neurogenic locus notch homolog protein 2 (Homo sapiens) (UniProt Q04721) | composite z-score | 0.885 |
| NCCCCCCNC(=O)[C@@H]1C[C@@H]2C(=O)N3CCC[C@H]3C(=O)N2[C@@H]1c1ccc(O)cc1 | Neurogenic locus notch homolog protein 2 (Homo sapiens) (UniProt Q04721) | composite z-score | 0.337 |
| COCCOC(=O)N1C(=O)[C@@]2(c3cc(C#Cc4ccc(OC)cc4)ccc31)[C@H](C(=O)NC[C@H](O)c1ccccc1)[C@H]1C(=O)O[C@H](c3ccccc3)[C@H](c3ccccc3)N1[C@@H]2c1ccc(O)cc1 | Neurogenic locus notch homolog protein 2 (Homo sapiens) (UniProt Q04721) | composite z-score | 1.37 |
